# targetEntity: human orexin 1 receptor (Homo sapiens, UniProt O43613)
# Construct: expressed in transfected cells
# Sequence (O43613 whole entry): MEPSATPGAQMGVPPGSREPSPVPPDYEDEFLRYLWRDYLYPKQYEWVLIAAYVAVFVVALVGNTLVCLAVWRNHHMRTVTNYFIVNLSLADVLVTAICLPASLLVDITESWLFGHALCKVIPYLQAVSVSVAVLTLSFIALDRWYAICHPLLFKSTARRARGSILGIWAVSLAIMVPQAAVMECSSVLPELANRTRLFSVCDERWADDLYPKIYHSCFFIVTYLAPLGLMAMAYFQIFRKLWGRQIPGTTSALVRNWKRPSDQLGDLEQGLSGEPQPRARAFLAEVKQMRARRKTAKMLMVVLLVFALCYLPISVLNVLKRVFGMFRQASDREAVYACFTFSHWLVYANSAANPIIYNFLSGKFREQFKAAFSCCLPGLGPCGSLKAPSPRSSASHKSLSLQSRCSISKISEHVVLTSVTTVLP
# assayOverview: Calcium accumulation in cells (FLIPR), antagonism of orexin A, human orexin 1 receptor
# Type: cell-based
# condition: measured at a concentration of 10 μM of compound; read-out: FLIPR hOx1R % inhibition
Output MET for inhibition at 10 µM not less than 30%; output NOT MET otherwise.

These solved cases illustrate the format of a correct answer.
Cc1cc(C)nc(N2CCC3(CC2)NCCN(Cc2nocc2-c2ccccc2)C3=O)n1; MET
COc1cc(OC)cc(-c2cn(C)nc2CN2CCNC3(CCN(c4nc(C)cc(C)n4)CC3)C2=O)c1; MET
Cc1nc(N2CCOCC2)cc(N2CCC3(CCN(Cc4c[nH]c5ccccc45)C3=O)C2)n1 (stereo not drawn); MET
COc1ccnc(N2CCC3(CC2)NCCN(Cc2c[nH]c4ccccc24)C3=O)n1; MET
Cc1cc(C)nc(N2CCC3(CC2)NCCN(Cc2nn(C)cc2-c2cccc(C#N)c2)C3=O)n1; NOT MET
Cc1ccc(C)c(CN2C(=O)COCC23CCN(c2nc(C)cc(C)n2)CC3)c1; NOT MET

Exam item: decide whether the reported inhibition at 10 µM for Cc1cc(C)nc(N2CCC3(CCN(Cc4cccc5[nH]ccc45)C3=O)C2)n1 (stereo not drawn) is at least 30%. NOT MET

Exam item: decide whether the reported inhibition at 10 µM for "Cc1cc(C)nc(N2CCC3(CC2)NCCN(Cc2ccccc2-c2nc(C)no2)C3=O)n1" is at least 30%. NOT MET

Exam item: decide whether the reported inhibition at 10 µM for "O=C1OCC2(CCN(c3cnc4ccccc4n3)CC2)N1Cc1c[nH]c2ccccc12" is at least 30%. MET

Exam item: decide whether the reported inhibition at 10 µM for O=C1N(Cc2c[nH]c3ccccc23)CCC12CCN(c1cc3c(nn1)CCOC3)C2 (stereo not drawn) is at least 30%. NOT MET

Exam item: decide whether the reported inhibition at 10 µM for COc1cc(N2CCC3(CCN(Cc4c[nH]c5ccccc45)C3=O)C2)nc2ccnn12 (stereo not drawn) is at least 30%. NOT MET

Exam item: decide whether the reported inhibition at 10 µM for "Cc1cc(C)nc(N2CCC3(CC2)NCCN(Cc2nn(C)cc2-c2cccc(N(C)C)c2)C3=O)n1" is at least 30%. NOT MET

Exam item: decide whether the reported inhibition at 10 µM for "Cc1cc(C)nc(N2CCC3(CC2)OCCN(Cc2ccccc2-c2ncco2)C3=O)n1" is at least 30%. MET

Exam item: decide whether the reported inhibition at 10 µM for "COc1ccnc(N2CCC3(CCN(Cc4ccccc4-c4nc(C)no4)C3=O)CC2)n1" is at least 30%. MET

Exam item: decide whether the reported inhibition at 10 µM for "Cc1cc(C)nc(N2CCC3(CCN(Cc4ccccc4-c4nc(C)no4)C3=O)CC2)n1" is at least 30%. NOT MET

Exam item: decide whether the reported inhibition at 10 µM for COc1ccnc(N2CCC3(CCN(Cc4c[nH]c5ncccc45)C3=O)C2)n1 (stereo not drawn) is at least 30%. NOT MET

Exam item: decide whether the reported inhibition at 10 µM for "Cc1cncc(N2CCC3(CC2)COC(=O)N3Cc2c[nH]c3ccccc23)n1" is at least 30%. NOT MET

Exam item: decide whether the reported inhibition at 10 µM for "COc1ccnc(N2CCC3(CCN(Cc4c[nH]c5ncccc45)C3=O)CC2)n1" is at least 30%. NOT MET

Exam item: decide whether the reported inhibition at 10 µM for Cc1ccnc(N2CCC3(CCN(Cc4c[nH]c5ccccc45)C3=O)C2)n1 (stereo not drawn) is at least 30%. MET

Exam item: decide whether the reported inhibition at 10 µM for "COc1cc(C)nc(N2CCC3(CCN(Cc4c[nH]c5ncccc45)C3=O)CC2)n1" is at least 30%. NOT MET

Exam item: decide whether the reported inhibition at 10 µM for "COCc1cccc(-c2oc(C)nc2CN2CCNC3(CCN(c4nc(C)cc(C#N)n4)CC3)C2=O)c1" is at least 30%. MET

Exam item: decide whether the reported inhibition at 10 µM for "COc1ccc(-c2cn(C)nc2CN2CCNC3(CCN(c4nc(C)cc(C)n4)CC3)C2=O)cc1" is at least 30%. MET

Exam item: decide whether the reported inhibition at 10 µM for "N#Cc1ccnc(N2CCC3(CC2)COCC(=O)N3Cc2cccc3[nH]ccc23)c1" is at least 30%. NOT MET

Exam item: decide whether the reported inhibition at 10 µM for "Cc1ccnc(N2CCC3(CC2)COCC(=O)N3Cc2cccc3[nH]ccc23)n1" is at least 30%. NOT MET

Exam item: decide whether the reported inhibition at 10 µM for "Cc1cc(C)nc(N2CCC3(CC2)COC(=O)N3Cc2c[nH]c3ccccc23)n1" is at least 30%. NOT MET

Exam item: decide whether the reported inhibition at 10 µM for O=C1N(Cc2c[nH]c3ccccc23)CCC12CCN(c1cc(C(F)(F)F)ncn1)C2 (stereo not drawn) is at least 30%. MET

Exam item: decide whether the reported inhibition at 10 µM for COc1cc(C)nc(N2CCC3(CCN(Cc4nn(C)nc4Br)C3=O)C2)n1 (stereo not drawn) is at least 30%. NOT MET

Exam item: decide whether the reported inhibition at 10 µM for "Cc1cc(C)nc(N2CCC3(CC2)NCCN(Cc2nn(C)cc2-c2ccc(C#N)cc2)C3=O)n1" is at least 30%. NOT MET

Exam item: decide whether the reported inhibition at 10 µM for "COc1ccnc(N2CC[C@@]3(CCN(Cc4c[nH]c5ccccc45)C3=O)C2)n1" is at least 30%. MET

Exam item: decide whether the reported inhibition at 10 µM for "Cc1cc(C)nc(N2CCC3(CC2)OCCN(Cc2nnn(C)c2-c2ccccc2)C3=O)n1" is at least 30%. NOT MET

Exam item: decide whether the reported inhibition at 10 µM for "N#Cc1cccc(N2CCC3(CC2)COCC(=O)N3Cc2cccc3[nH]ccc23)n1" is at least 30%. MET

Exam item: decide whether the reported inhibition at 10 µM for "Cc1cncc(N2CCC3(CC2)COC(=O)N3Cc2cccc3[nH]ccc23)n1" is at least 30%. NOT MET

Exam item: decide whether the reported inhibition at 10 µM for "Cc1cncc(N2CCC3(CCC(=O)N3Cc3cccc4[nH]ccc34)CC2)n1" is at least 30%. NOT MET
